Provide the reported HEK-blue EC50 (pM) + 300 nM BP of each item.
Molecular target: T1, human IL-18 binding protein (human, UniProt O95998 31-194)
T1 sequence (looked up): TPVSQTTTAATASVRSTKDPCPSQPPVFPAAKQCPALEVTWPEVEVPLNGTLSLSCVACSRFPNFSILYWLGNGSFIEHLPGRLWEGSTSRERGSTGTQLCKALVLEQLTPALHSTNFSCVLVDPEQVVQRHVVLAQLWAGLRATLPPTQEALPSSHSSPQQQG
Assay: cell-based or functional assay
Answers are plain numbers, in pM.

[
  {
    "binder": "human IL-18 variant G3T/E6K/K53A/M60K (ligand) YFTKLKSKLSVIRNLNDQVLFIDQGNRPLFEDMTDSDMRDNAPRTIFIISMYADSQPRGKAVTISVKSEKISTLSSENKIISFKEMNPPDNIKDTKSDIIFFQRSVPGHDNKMQFESSSYEGYFLASEKERDLFKLILKKEDELGDRSIMFTVQNED",
    "HEK-blue EC50 (pM) + 300 nM BP": 0.062
  }
]

Asked: Any idea what its HEK-blue EC50 (pM) + 300 nM BP is? The binder is human IL-18 variant G3V/E6K/K53S/M60K (ligand) YFVKLKSKLSVIRNLNDQVLFIDQGNRPLFEDMTDSDMRDNAPRTIFIISMYSDSQPRGKAVTISVKSEKISTLSSENKIISFKEMNPPDNIKDTKSDIIFFQRSVPGHDNKMQFESSSYEGYFLASEKERDLFKLILKKEDELGDRSIMFTVQNED
Given back: 0.098
